target.entity: HLA-DRB3 (DRB3*0101) (human)
test.details: competition binding
measurement.setup: chains peptide; modification not given
For each entry below, report its pIC50 value.
Conceptually, pIC50 converts a concentration in mol/L into minus its log10.

Task item: Consider the binder KPGIYRFVAPGERPSGMFD [27N 1495-1513] and give its measured pIC50.
Reply: 4.40

Task item: Let us now turn to DPNIRTGVRTITTGSPITYSTYGKFLADGG [19N 1275-1304]
Reply: 6.82

Task item: How about KNQVEGEVQIVSTAAQTFLAT [10N 1052-1072] ?
Reply: 5.00
